Assignment: determine reported viability, T/C for the given compounds.
test system: 171881-019-R-J1-PDC multicell spheroid viability; experiment: Anticancer human tumor 171881-019-R-J1-PDC patient-derived invasive breast carcinoma cell line growth inhibition [IpAb]; settings: second compound 3.16 µM; first compound 1 µM; stronger effect = lower value
Report only the number, with the unit % understood.

// viability, T/C value for C=CC(=O)N1CCN(c2nc(=O)n(-c3c(C)ccnc3C(C)C)c3nc(-c4c(O)cccc4F)c(F)cc23)C(C)C1 (stereo not drawn) + CC(C)NCC(C(=O)N1CCN(c2ncnc3c2C(C)CC3O)CC1)c1ccc(Cl)cc1 : 11.5

The compound listed as C=CCn1c(=O)c2cnc(Nc3ccc(N4CCN(C)CC4)cc3)nc2n1-c1cccc(C(C)(C)O)n1 + CC(C)NCC(C(=O)N1CCN(c2ncnc3c2C(C)CC3O)CC1)c1ccc(Cl)cc1 shows viability, T/C equal to 5.35

Summary for this compound, Cc1nc(NC(=O)N2CCCC2C(N)=O)sc1-c1ccnc(C(C)(C)C(F)(F)F)c1 (stereo not drawn) + CC(C)NCC(C(=O)N1CCN(c2ncnc3c2C(C)CC3O)CC1)c1ccc(Cl)cc1 : viability, T/C is 5.54

For this compound ( CC1(C)CCC(CN2CCN(c3ccc(C(=O)NS(=O)(=O)c4ccc(NCC5CCOCC5)c([N+](=O)[O-])c4)c(Oc4cnc5[nH]ccc5c4)c3)CC2)=C(c2ccc(Cl)cc2)C1 + CC(C)NCC(C(=O)N1CCN(c2ncnc3c2C(C)CC3O)CC1)c1ccc(Cl)cc1 ), measured viability, T/C is 11.5

Input COc1c(OCCCN2CCOCC2)ccc2c3n(c(=NC(=O)c4cnc(N)nc4)nc12)CCN3 + CC(C)NCC(C(=O)N1CCN(c2ncnc3c2C(C)CC3O)CC1)c1ccc(Cl)cc1 . Output viability, T/C: 0.67

get_value(item= Cn1ncc(Cl)c1-c1cc(C(=O)NC(CN)Cc2cccc(F)c2)sc1Cl (stereo not drawn) + CC(C)NCC(C(=O)N1CCN(c2ncnc3c2C(C)CC3O)CC1)c1ccc(Cl)cc1 , readout=viability, T/C) returns 7.27

Lookup result for CCCS(=O)(=O)Nc1ccc(F)c(C(=O)c2c[nH]c3ncc(-c4ccc(Cl)cc4)cc23)c1F + CC(C)NCC(C(=O)N1CCN(c2ncnc3c2C(C)CC3O)CC1)c1ccc(Cl)cc1 ; measured viability, T/C: 14.5

Kindly note the recorded viability, T/C for Cn1nccc1Nc1nccc(-c2ccn(C(CO)c3ccc(Cl)c(F)c3)c(=O)c2)n1 (stereo not drawn) + CC(C)NCC(C(=O)N1CCN(c2ncnc3c2C(C)CC3O)CC1)c1ccc(Cl)cc1 , which is 1.77

----------
tested on: 171881-019-R-J1-PDC multicell spheroid viability; test: Anticancer human tumor 171881-019-R-J1-PDC cell line growth inhibition [IpAb]; settings: second compound 0.316 µM; first compound 0.1 µM; active = viability on the fitted dose curve at most 10% of control; inactive = the rest;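 note: spheroids exposed to the agents for seven days before readout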
Could you please pick one outcome from this set? active, inactive

Could you please tell me the result logged for Cn1ncc(Cl)c1-c1cc(C(=O)NC(CN)Cc2cccc(F)c2)sc1Cl (stereo unspecified) + CCN1CCN(Cc2ccc(Nc3ncc(F)c(-c4cc(F)c5nc(C)n(C(C)C)c5c4)n3)nc2)CC1 in this assay?
inactive

State the result this test recorded for C=CC(=O)N1CCN(c2nc(=O)n(-c3c(C)ccnc3C(C)C)c3nc(-c4c(O)cccc4F)c(F)cc23)C(C)C1 (stereo unspecified) + CCN1CCN(Cc2ccc(Nc3ncc(F)c(-c4cc(F)c5nc(C)n(C(C)C)c5c4)n3)nc2)CC1 .
inactive

Assay outcome for Cn1ncnc1[C@H]1c2n[nH]c(=O)c3cc(F)cc(c23)N[C@@H]1c1ccc(F)cc1 + CCN1CCN(Cc2ccc(Nc3ncc(F)c(-c4cc(F)c5nc(C)n(C(C)C)c5c4)n3)nc2)CC1 : what was it?
inactive

Recorded test call requested for COc1c(OCCCN2CCOCC2)ccc2c3n(c(=NC(=O)c4cnc(N)nc4)nc12)CCN3 + CC(C)NCC(C(=O)N1CCN(c2ncnc3c2C(C)CC3O)CC1)c1ccc(Cl)cc1
active

Hello, I am checking results. What call was entered for Cc1nc(NC(=O)N2CCCC2C(N)=O)sc1-c1ccnc(C(C)(C)C(F)(F)F)c1 (stereo unspecified) + CCN1CCN(Cc2ccc(Nc3ncc(F)c(-c4cc(F)c5nc(C)n(C(C)C)c5c4)n3)nc2)CC1 ?
inactive

Could you please tell me the result logged for CC(C)n1nc(-c2ccc3oc(N)nc3c2)c2c(N)ncnc21 + CCN1CCN(Cc2ccc(Nc3ncc(F)c(-c4cc(F)c5nc(C)n(C(C)C)c5c4)n3)nc2)CC1 in this assay?
active

----------
For each of the compounds below, state its viability, T/C.
tested on: 171881-019-R-J1-PDC multicell spheroid viability; test: Anticancer human tumor 171881-019-R-J1-PDC cell line growth inhibition [IpAb]; conditions: second compound 0.1 µM; first compound 0.1 µM; stronger effect = lower value;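 note: spheroids exposed to the agents for seven days before readout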
Number in %, nothing else.

In plain terms, CC(C)n1nc(-c2ccc3oc(N)nc3c2)c2c(N)ncnc21 + CC(C)NCC(C(=O)N1CCN(c2ncnc3c2C(C)CC3O)CC1)c1ccc(Cl)cc1 has a documented viability, T/C of 2

Entry under test: C=CC(=O)N1CCN(c2nc(=O)n(-c3c(C)ccnc3C(C)C)c3nc(-c4c(O)cccc4F)c(F)cc23)C(C)C1 (stereo unspecified) + CC(C)NCC(C(=O)N1CCN(c2ncnc3c2C(C)CC3O)CC1)c1ccc(Cl)cc1 . Its viability, T/C was 87.7

The value of viability, T/C measured for the compound Cn1ncnc1[C@H]1c2n[nH]c(=O)c3cc(F)cc(c23)N[C@@H]1c1ccc(F)cc1 + CC(C)NCC(C(=O)N1CCN(c2ncnc3c2C(C)CC3O)CC1)c1ccc(Cl)cc1 turned out to be 101

Cn1ncc(Cl)c1-c1cc(C(=O)NC(CN)Cc2cccc(F)c2)sc1Cl (stereo unspecified) + CCN1CCN(Cc2ccc(Nc3ncc(F)c(-c4cc(F)c5nc(C)n(C(C)C)c5c4)n3)nc2)CC1 has a reported viability, T/C of 66.2

Value of measured viability, T/C for the entry CC(C)n1nc(-c2ccc3oc(N)nc3c2)c2c(N)ncnc21 + CCN1CCN(Cc2ccc(Nc3ncc(F)c(-c4cc(F)c5nc(C)n(C(C)C)c5c4)n3)nc2)CC1 : 2.76

// recorded viability, T/C for C=CCn1c(=O)c2cnc(Nc3ccc(N4CCN(C)CC4)cc3)nc2n1-c1cccc(C(C)(C)O)n1 + CCN1CCN(Cc2ccc(Nc3ncc(F)c(-c4cc(F)c5nc(C)n(C(C)C)c5c4)n3)nc2)CC1 : 105

Query COc1c(OCCCN2CCOCC2)ccc2c3n(c(=NC(=O)c4cnc(N)nc4)nc12)CCN3 + CCN1CCN(Cc2ccc(Nc3ncc(F)c(-c4cc(F)c5nc(C)n(C(C)C)c5c4)n3)nc2)CC1 yields viability, T/C of 5.31

// viability, T/C value for Cn1ncnc1[C@H]1c2n[nH]c(=O)c3cc(F)cc(c23)N[C@@H]1c1ccc(F)cc1 + CCN1CCN(Cc2ccc(Nc3ncc(F)c(-c4cc(F)c5nc(C)n(C(C)C)c5c4)n3)nc2)CC1 : 113

The measured viability, T/C associated with C=CC(=O)N1CCN(c2nc(=O)n(-c3c(C)ccnc3C(C)C)c3nc(-c4c(O)cccc4F)c(F)cc23)C(C)C1 (stereo unspecified) + CCN1CCN(Cc2ccc(Nc3ncc(F)c(-c4cc(F)c5nc(C)n(C(C)C)c5c4)n3)nc2)CC1 reads 128

Reported viability, T/C of Cc1nc(NC(=O)N2CCCC2C(N)=O)sc1-c1ccnc(C(C)(C)C(F)(F)F)c1 (stereo unspecified) + CCN1CCN(Cc2ccc(Nc3ncc(F)c(-c4cc(F)c5nc(C)n(C(C)C)c5c4)n3)nc2)CC1 : 112

Briefly, viability, T/C measured for Cn1nccc1Nc1nccc(-c2ccn(C(CO)c3ccc(Cl)c(F)c3)c(=O)c2)n1 (stereo unspecified) + CCN1CCN(Cc2ccc(Nc3ncc(F)c(-c4cc(F)c5nc(C)n(C(C)C)c5c4)n3)nc2)CC1 : 113

----------
System: 171881-019-R-J1-PDC multicell spheroid viability
Test: Anticancer human tumor 171881-019-R-J1-PDC cell line growth inhibition [IpAb];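 note: spheroids exposed to the agents for seven days before readout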
Details: second compound 1 µM; first compound 0.0316 µM; stronger effect = lower value
Procedure: Combinatorial screen of targeted agents with ipatasertib and abemaciclib in multi-cell type tumor spheroids […] Compounds. […] If the clinical Cmax for an agent had not been determined, the highest concentration tested was 10 microM. NCI60 Cell Culture. […] The optimal seeding densities for each of the cell lines at each time point assessed were determined prior to performing the concentration response studies. […]
Please provide measured viability, T/C for the entries that follow.

Field viability, T/C (entry CCCS(=O)(=O)Nc1ccc(F)c(C(=O)c2c[nH]c3ncc(-c4ccc(Cl)cc4)cc23)c1F + CC(C)NCC(C(=O)N1CCN(c2ncnc3c2C(C)CC3O)CC1)c1ccc(Cl)cc1 ) reads 36.9%

Query CCCS(=O)(=O)Nc1ccc(F)c(C(=O)c2c[nH]c3ncc(-c4ccc(Cl)cc4)cc23)c1F + CCN1CCN(Cc2ccc(Nc3ncc(F)c(-c4cc(F)c5nc(C)n(C(C)C)c5c4)n3)nc2)CC1 yields viability, T/C of 143%

Kindly note the recorded viability, T/C for Cn1ncc(Cl)c1-c1cc(C(=O)NC(CN)Cc2cccc(F)c2)sc1Cl (stereo not given) + CC(C)NCC(C(=O)N1CCN(c2ncnc3c2C(C)CC3O)CC1)c1ccc(Cl)cc1 , which is 23.8%

The compound identified as C=CCn1c(=O)c2cnc(Nc3ccc(N4CCN(C)CC4)cc3)nc2n1-c1cccc(C(C)(C)O)n1 + CCN1CCN(Cc2ccc(Nc3ncc(F)c(-c4cc(F)c5nc(C)n(C(C)C)c5c4)n3)nc2)CC1 registered its viability, T/C at 150%

viability, T/C for COc1c(OCCCN2CCOCC2)ccc2c3n(c(=NC(=O)c4cnc(N)nc4)nc12)CCN3 + CC(C)NCC(C(=O)N1CCN(c2ncnc3c2C(C)CC3O)CC1)c1ccc(Cl)cc1 is 8.13%
